assay: Pharmacokinetics of everolimus in whole blood (LC-MS, non-compartmental); format: in vivo, human; details: human, whole blood, po, everolimus 15 mg oral with paclitaxel 80 mg m^−2; dose level 1; n=3; mean (s.d.)
experimental-readout: half-life (min)
Give the quantity in min, number only.

Read the entry CO[C@H]1C[C@@H]2CC[C@@H](C)[C@@](O)(O2)C(=O)C(=O)N2CCCC[C@H]2C(=O)O[C@H]([C@H](C)C[C@@H]2CC[C@@H](OCCO)[C@H](OC)C2)CC(=O)[C@H](C)/C=C(\C)[C@@H](O)[C@@H](OC)C(=O)[C@H](C)C[C@H](C)/C=C/C=C/C=C/1C [everolimus, Everolimus] and write its reported half-life.
1480
